Where do the numbers come from? From ChEMBL document CHEMBL1131003.

Experiment: Peak plasma concentration was measured in dogs
Assay type: ADME, organism-based, Canis lupus familiaris
Conditions: dog
OBSERVED_PROPERTY: Cmax (nM)
Numbers only, in nM.

Known results for compounds:
| SMILES_STR | OBSERVED_PROPERTY | MEASUREMENT_UNIT | MEAS_VALUE |
| --- | --- | --- | --- |
| O=C(Cn1cncn1)c1cccc(CN2C(=O)N(Cc3ccc4[nH]ncc4c3)[C@H](Cc3ccccc3)[C@H](O)[C@@H](O)[C@H]2Cc2ccccc2)c1 | Cmax | nM | 150 |
| O=C(Cc1ccccn1)c1cccc(CN2C(=O)N(Cc3ccc4[nH]ncc4c3)[C@H](Cc3ccccc3)[C@H](O)[C@@H](O)[C@H]2Cc2ccccc2)c1 | Cmax | nM | 700 |
| CNc1cccc(CN2C(=O)N(Cc3ccc4[nH]ncc4c3)[C@H](Cc3ccccc3)[C@H](O)[C@@H](O)[C@H]2Cc2ccccc2)c1 | Cmax | nM | 8000 |
| Nc1ccc(CN2C(=O)N(Cc3ccc4[nH]ncc4c3)[C@H](Cc3ccccc3)[C@H](O)[C@@H](O)[C@H]2Cc2ccccc2)cc1 | Cmax | nM | 10600 |

Here's the next entry for you.
IN: Quick check: Cmax of Nc1ccc(CN2C(=O)N(Cc3ccc4[nH]ncc4c3)[C@H](Cc3ccccc3)[C@H](O)[C@@H](O)[C@H]2Cc2ccccc2)cc1-n1cncn1 ?
OUT: 500

###

The listing below reports pKi for molecules tested on UniProtKB Q72874.
One number for each entry, as −log10 of the molar value.

| SMILES_STR | MEAS_VALUE |
| --- | --- |
| O=C1N(Cc2cccc(Cn3cncn3)c2)[C@H](Cc2ccccc2)[C@H](O)[C@@H](O)[C@@H](Cc2ccccc2)N1Cc1ccc2[nH]ncc2c1 | 10.27 |

Dear colleague, could you send me pKi for each of the items below? Thanks.
1. Cc1ccc(CN2C(=O)N(Cc3ccc4[nH]ncc4c3)[C@H](Cc3ccccc3)[C@H](O)[C@@H](O)[C@H]2Cc2ccccc2)cc1N
2. Nc1cccc(CN2C(=O)N(Cc3ccc4[nH]ncc4c3)[C@H](Cc3ccccc3)[C@H](O)[C@@H](O)[C@H]2Cc2ccccc2)c1

OUT:
10.30
10.52

Dear colleague, could you send me pKi for each of the items below? Thanks.
1. Nc1ccc(CN2C(=O)N(Cc3ccc4[nH]ncc4c3)[C@H](Cc3ccccc3)[C@H](O)[C@@H](O)[C@H]2Cc2ccccc2)cc1-n1nccn1
2. Nc1ccc(CN2C(=O)N(Cc3ccc4[nH]ncc4c3)[C@H](Cc3ccccc3)[C@H](O)[C@@H](O)[C@H]2Cc2ccccc2)cc1F
3. O=C(Cc1ccccn1)c1cccc(CN2C(=O)N(Cc3ccc4[nH]ncc4c3)[C@H](Cc3ccccc3)[C@H](O)[C@@H](O)[C@H]2Cc2ccccc2)c1
4. O=C1N(Cc2cccc(O)c2)[C@H](Cc2ccccc2)[C@H](O)[C@@H](O)[C@@H](Cc2ccccc2)N1Cc1ccc2[nH]ncc2c1
5. O=C(Nc1nccs1)c1cccc(CN2C(=O)N(Cc3ccc4[nH]ncc4c3)[C@H](Cc3ccccc3)[C@H](O)[C@@H](O)[C@H]2Cc2ccccc2)c1
6. Nc1cc(CN2C(=O)N(Cc3ccc4[nH]ncc4c3)[C@H](Cc3ccccc3)[C@H](O)[C@@H](O)[C@H]2Cc2ccccc2)ccc1F
7. O=C1N(Cc2cccc(NCc3nc4ccccc4[nH]3)c2)[C@H](Cc2ccccc2)[C@H](O)[C@@H](O)[C@@H](Cc2ccccc2)N1Cc1ccc2[nH]ncc2c1
8. NC(=O)c1cc(CN2C(=O)N(Cc3ccc4[nH]ncc4c3)[C@H](Cc3ccccc3)[C@H](O)[C@@H](O)[C@H]2Cc2ccccc2)ccc1F

OUT:
[10.23, 10.44, 10.14, 10.35, 10.80, 10.74, 10.80, 10.74]

Dear colleague, could you send me pKi for each of the items below? Thanks.
1. CC(=O)c1cccc(CN2C(=O)N(Cc3ccc4[nH]ncc4c3)[C@H](Cc3ccccc3)[C@H](O)[C@@H](O)[C@H]2Cc2ccccc2)c1
2. Nc1ccc(CN2C(=O)N(Cc3ccc4[nH]ncc4c3)[C@H](Cc3ccccc3)[C@H](O)[C@@H](O)[C@H]2Cc2ccccc2)cc1-c1cc[nH]n1
3. CNc1cc(CN2C(=O)N(Cc3ccc4[nH]ncc4c3)[C@H](Cc3ccccc3)[C@H](O)[C@@H](O)[C@H]2Cc2ccccc2)ccc1F
4. O=C1N(Cc2ccc3[nH]ncc3c2)[C@H](CCc2ccccc2)[C@@H](O)[C@@H](Cc2ccccc2)N1Cc1ccc2[nH]ncc2c1
5. CN(C)c1cccc(CN2C(=O)N(Cc3ccc4[nH]ncc4c3)[C@H](Cc3ccccc3)[C@H](O)[C@@H](O)[C@H]2Cc2ccccc2)c1
6. COC(=O)Cc1cccc(CN2C(=O)N(Cc3ccc4[nH]ncc4c3)[C@H](Cc3ccccc3)[C@H](O)[C@@H](O)[C@H]2Cc2ccccc2)c1
7. CNc1cccc(CN2C(=O)N(Cc3ccc4[nH]ncc4c3)[C@H](Cc3ccccc3)[C@H](O)[C@@H](O)[C@H]2Cc2ccccc2)c1
8. Nc1ccc(CN2C(=O)N(Cc3ccc4[nH]ncc4c3)[C@H](Cc3ccccc3)[C@H](O)[C@@H](O)[C@H]2Cc2ccccc2)cc1

OUT:
1: 10.44; 2: 10.60; 3: 10.57; 4: 10.64; 5: 9.64; 6: 9.96; 7: 10.41; 8: 10.52

###

Biological target: Human immunodeficiency virus type 1 protease (Human immunodeficiency virus 1)
Assay: Antiviral activity against mutant virus HIV-1 mutant (84V) strain
Assay type: functional
Checkbox rule: IC90 mutant/IC90 WT lower than 1 = YES; IC90 mutant/IC90 WT not lower than 1 = NO.

| SMILES_STR | CATEGORY |
| --- | --- |
| Nc1cccc(CN2C(=O)N(Cc3ccc4[nH]ncc4c3)[C@H](Cc3ccccc3)[C@H](O)[C@@H](O)[C@H]2Cc2ccccc2)c1 | NO |
| Nc1ccc(CN2C(=O)N(Cc3ccc4[nH]ncc4c3)[C@H](Cc3ccccc3)[C@H](O)[C@@H](O)[C@H]2Cc2ccccc2)cc1-n1cccn1 | NO |
| O=C1N(Cc2cccc(-c3nc[nH]n3)c2)[C@H](Cc2ccccc2)[C@H](O)[C@@H](O)[C@@H](Cc2ccccc2)N1Cc1ccc2[nH]ncc2c1 | NO |

IN: Does the reported IC90 mutant/IC90 WT of O=C(Nc1ncc[nH]1)c1cccc(CN2C(=O)N(Cc3cccc(C(=O)Nc4ncc[nH]4)c3)[C@H](Cc3ccccc3)[C@H](O)[C@@H](O)[C@H]2Cc2ccccc2)c1 stay below 1?
OUT: YES

IN: Does the reported IC90 mutant/IC90 WT of Nc1cccc(CN2C(=O)N(Cc3cccc(N)c3)[C@H](Cc3ccccc3)[C@H](O)[C@@H](O)[C@H]2Cc2ccccc2)c1 stay below 1?
OUT: NO

###

Please go through the items and note down their IC90 mutant/IC90 WT.
Target: UniProt Q72874
Experiment: Antiviral activity against indinavir virus (HIV-1 mutated at 10R/63P/71V/82T/84V and resistant to indinavir)
Give bare numbers.

Known results for compounds:
| COMPOUND | MEAS_VALUE |
| --- | --- |
| O=C(Nc1nccs1)c1cccc(CN2C(=O)N(Cc3ccc4[nH]ncc4c3)[C@H](Cc3ccccc3)[C@H](O)[C@@H](O)[C@H]2Cc2ccccc2)c1 | 7.3 |
| O=C1N(Cc2ccc(CO)cc2)[C@H](Cc2ccccc2)[C@H](O)[C@@H](O)[C@@H](Cc2ccccc2)N1Cc1ccc(CO)cc1 [DMP-323] | 18 |
| O=C(Nc1ncc[nH]1)c1cccc(CN2C(=O)N(Cc3cccc(C(=O)Nc4ncc[nH]4)c3)[C@H](Cc3ccccc3)[C@H](O)[C@@H](O)[C@H]2Cc2ccccc2)c1 | 0.4 |
| Nc1cccc(CN2C(=O)N(Cc3ccc4[nH]ncc4c3)[C@H](Cc3ccccc3)[C@H](O)[C@@H](O)[C@H]2Cc2ccccc2)c1 | 20 |

Here's the next entry for you.
IN: IC90 mutant/IC90 WT of Nc1cccc(CN2C(=O)N(Cc3cccc(N)c3)[C@H](Cc3ccccc3)[C@H](O)[C@@H](O)[C@H]2Cc2ccccc2)c1 [MOZENAVIR] on UniProt Q72874?
OUT: 27

###

Please go through the items and note down their bioavailability.
Experiment: Oral bioavailability in dog (dose 10 mg/kg)
Assay type: ADME, organism-based, Canis lupus familiaris
Details: in vivo
Answers are plain numbers, in %.

Known results for molecules:
| SMILES_STR | bioavailability, % |
| --- | --- |
| CNc1cccc(CN2C(=O)N(Cc3ccc4[nH]ncc4c3)[C@H](Cc3ccccc3)[C@H](O)[C@@H](O)[C@H]2Cc2ccccc2)c1 | 92 |
| CC(=O)c1cccc(CN2C(=O)N(Cc3ccc4[nH]ncc4c3)[C@H](Cc3ccccc3)[C@H](O)[C@@H](O)[C@H]2Cc2ccccc2)c1 | 25 |

Dear colleague, could you send me bioavailability for each of the items below? Thanks.
1. Nc1cccc(CN2C(=O)N(Cc3ccc4[nH]ncc4c3)[C@H](Cc3ccccc3)[C@H](O)[C@@H](O)[C@H]2Cc2ccccc2)c1
2. CNc1cc(CN2C(=O)N(Cc3ccc4[nH]ncc4c3)[C@H](Cc3ccccc3)[C@H](O)[C@@H](O)[C@H]2Cc2ccccc2)ccc1F
3. Nc1ccc(CN2C(=O)N(Cc3ccc4[nH]ncc4c3)[C@H](Cc3ccccc3)[C@H](O)[C@@H](O)[C@H]2Cc2ccccc2)cc1

OUT:
[93, 14, 100]
